# Test system: recombinant NL4-3 virus (Renilla luciferase in nef, Gag P373S; NLRluc) in MT-2 cells
# experiment.notes: whole plant or invertebrate
# Format: cell-based, HIV
# condition.context: Renilla, NL43, luciferase activity in cells infected for 4-5 days with NLRluc recombinants, serial dilutions of inhibitor; class symbols (key in Table 1); read-out: EC50
observable: EC50

| compound.string | observable | obs.value |
| --- | --- | --- |
| C=C(C)[C@@H]1CC[C@]2(NC(=O)CN(C)CCOC)CC[C@]3(C)[C@H](CC[C@@H]4[C@@]5(C)CC=C(c6ccc(C(=O)O)cc6)C(C)(C)[C@@H]5CC[C@]43C)[C@@H]12 | EC50 | < 0.1 µM |
| C=C(C)[C@@H]1CC[C@]2(NCCN3CCN(C(=O)CC4CCCC4)CC3)CC[C@]3(C)[C@H](CC[C@@H]4[C@@]5(C)CC=C(c6ccc(C(=O)O)cc6)C(C)(C)[C@@H]5CC[C@]43C)[C@@H]12 | EC50 | < 0.1 µM |

Measured values drawn from patent US20140343000A1 for this set.
